Tested on: Tyrosine-protein kinase ABL1 (Homo sapiens), P00519 [E255K]
Sequence (P00519 whole entry E255K): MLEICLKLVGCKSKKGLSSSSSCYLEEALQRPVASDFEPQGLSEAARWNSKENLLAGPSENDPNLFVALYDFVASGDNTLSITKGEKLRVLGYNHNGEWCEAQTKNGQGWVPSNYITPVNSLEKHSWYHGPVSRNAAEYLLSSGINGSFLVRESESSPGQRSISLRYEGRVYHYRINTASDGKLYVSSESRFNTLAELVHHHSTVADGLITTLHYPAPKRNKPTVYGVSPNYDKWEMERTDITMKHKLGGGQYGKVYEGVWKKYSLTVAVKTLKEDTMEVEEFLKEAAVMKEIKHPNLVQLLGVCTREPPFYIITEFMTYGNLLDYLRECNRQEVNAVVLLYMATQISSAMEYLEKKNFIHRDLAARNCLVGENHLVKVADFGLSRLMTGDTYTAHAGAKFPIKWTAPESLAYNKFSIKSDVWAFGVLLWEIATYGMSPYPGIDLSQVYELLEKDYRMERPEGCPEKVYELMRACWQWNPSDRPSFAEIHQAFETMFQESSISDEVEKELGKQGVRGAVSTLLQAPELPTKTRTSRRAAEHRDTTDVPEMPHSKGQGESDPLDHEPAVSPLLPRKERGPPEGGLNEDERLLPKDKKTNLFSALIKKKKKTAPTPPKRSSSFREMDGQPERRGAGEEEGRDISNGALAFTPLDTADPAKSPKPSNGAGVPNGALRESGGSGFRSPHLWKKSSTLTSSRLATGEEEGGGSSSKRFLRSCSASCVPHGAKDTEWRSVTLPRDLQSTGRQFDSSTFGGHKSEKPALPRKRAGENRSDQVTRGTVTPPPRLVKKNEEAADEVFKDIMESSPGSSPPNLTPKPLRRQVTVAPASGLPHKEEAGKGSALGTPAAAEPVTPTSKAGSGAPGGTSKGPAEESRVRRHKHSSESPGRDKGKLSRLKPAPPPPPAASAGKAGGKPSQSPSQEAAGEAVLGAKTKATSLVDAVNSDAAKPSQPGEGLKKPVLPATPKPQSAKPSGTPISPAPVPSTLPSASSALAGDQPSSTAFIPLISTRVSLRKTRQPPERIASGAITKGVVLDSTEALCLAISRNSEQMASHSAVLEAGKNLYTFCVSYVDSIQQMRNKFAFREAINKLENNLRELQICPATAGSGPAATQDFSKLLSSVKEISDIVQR
Conditions: at 1 µM
reported.endpoint: inhibition (%)
Entry rule: numbers only, all in %.

Worked cases, answers included:
{"columns": ["structure.string", "tested.on", "reported.measurement"],
 "data": [
  ["CCS(=O)(=O)c1ccc(OC)c(Nc2ncc(-c3cccc(F)c3)o2)c1", "Tyrosine-protein kinase ABL1 (Homo sapiens), P00519 [E255K]", 80.4],
  ["CN1CCC(n2cnc(-c3ccc(F)cc3)c2-c2ccnc(NCCO)n2)CC1", "Tyrosine-protein kinase ABL1 (Homo sapiens), P00519 [E255K]", 5.59],
  ["CC(C)c1ccc(-c2cc(-c3c[nH]nc3-c3ccccn3)ccn2)cc1", "Tyrosine-protein kinase ABL1 (Homo sapiens), P00519 [E255K]", 17.2]
]}

Next up:
Tyrosine-protein kinase ABL1 (Homo sapiens), P00519 [E255K] inhibition of COC(=O)Nc1nc2cc(Oc3ccc(NC(=O)Nc4ccccc4)cc3)ccc2[nH]1 is 11.4

====

Each entry below carries its recorded inhibition.
Target: Serine/threonine-protein kinase SIK2 (Homo sapiens)
Conditions: at 0.1 µM
Description: GSK_PKIS: SNF1LK2 (QIK) mean inhibition at 0.1 uM [Nanosyn]
Entry rule: numbers only, all in %.

{"columns": ["structure.string", "unit.of.measure", "inhibition"],
 "data": [
  ["Cn1c(-c2nonc2N)nc2cnccc21", "%", 5.17],
  ["COC(=O)Nc1nc2cc(Oc3ccc(NC(=O)Nc4ccccc4)cc3)ccc2[nH]1", "%", 1.28],
  ["CCS(=O)(=O)c1ccc(OC)c(Nc2ncc(-c3cccc(F)c3)o2)c1", "%", 8.6],
  ["Cc1nnc(-c2cccc(-c3ccc(C(=O)NCC4CC4)cc3)c2)o1", "%", 12.9]
]}

Consider Fc1cccc(COc2ccc(Nc3ncncc3C#Cc3ccccc3)cc2Cl)c1 . Its measured inhibition is 9.03

Consider COc1cccc(Nc2nccc(-c3cnn4ncccc34)n2)c1 . Its measured inhibition is 4.86

====

Target: Proto-oncogene tyrosine-protein kinase Src (Homo sapiens) (UniProt P12931);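 note: values are averaged inhibition of Src, tested against the GSK PKIS kinase inhibitor set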
Sequence (P12931 2-536 limits assumed): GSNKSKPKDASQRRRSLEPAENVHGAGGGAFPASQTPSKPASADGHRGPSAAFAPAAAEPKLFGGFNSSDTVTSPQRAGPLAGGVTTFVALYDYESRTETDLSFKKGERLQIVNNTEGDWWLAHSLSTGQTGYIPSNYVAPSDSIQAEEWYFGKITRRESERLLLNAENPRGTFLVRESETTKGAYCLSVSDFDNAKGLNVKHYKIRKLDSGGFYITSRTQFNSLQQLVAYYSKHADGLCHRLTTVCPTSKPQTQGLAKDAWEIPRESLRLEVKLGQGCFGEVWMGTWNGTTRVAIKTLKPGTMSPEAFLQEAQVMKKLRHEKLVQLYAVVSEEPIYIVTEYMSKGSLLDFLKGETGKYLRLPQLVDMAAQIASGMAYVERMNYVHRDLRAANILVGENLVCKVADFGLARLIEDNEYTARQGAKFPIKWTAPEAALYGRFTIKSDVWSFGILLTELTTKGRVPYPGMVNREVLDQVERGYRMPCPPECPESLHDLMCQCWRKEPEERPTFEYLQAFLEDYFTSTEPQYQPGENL
Settings: at 0.1 µM
reported.endpoint: inhibition (%)
Entry rule: numbers only, all in %.

Worked cases, answers included:
{"columns": ["compound", "tested.on", "unit.of.measure", "inhibition"],
 "data": [
  ["Cc1cc(O)cc(C)c1/C=C/c1cncc(C(N)=O)c1", "Proto-oncogene tyrosine-protein kinase Src (Homo sapiens) (UniProt P12931)", "%", 5.55],
  ["NS(=O)(=O)c1cccc(N/C=C2\\C(=O)Nc3ccccc32)c1", "Proto-oncogene tyrosine-protein kinase Src (Homo sapiens) (UniProt P12931)", "%", 1.93],
  ["COC(=O)Nc1nc2cc(Oc3ccc(NC(=O)Nc4ccccc4)cc3)ccc2[nH]1", "Proto-oncogene tyrosine-protein kinase Src (Homo sapiens) (UniProt P12931)", "%", 5.93],
  ["CS(=O)(=O)CCNCc1ccc(-c2ccc3ncnc(Nc4ccc(OCc5ccccc5)cc4)c3c2)o1", "Proto-oncogene tyrosine-protein kinase Src (Homo sapiens) (UniProt P12931)", "%", 9.13],
  ["COc1cccc(-n2ncc3c(N/N=C/c4ccc(C(=O)NCCN(C)C)cc4)ncnc32)c1", "Proto-oncogene tyrosine-protein kinase Src (Homo sapiens) (UniProt P12931)", "%", 65],
  ["COc1cccc(Nc2nccc(-c3cnn4ncccc34)n2)c1", "Proto-oncogene tyrosine-protein kinase Src (Homo sapiens) (UniProt P12931)", "%", 7.33],
  ["CCOc1ccc2c(-c3ccnc(Nc4cc(OC)cc(C(F)(F)F)c4)n3)cnn2n1", "Proto-oncogene tyrosine-protein kinase Src (Homo sapiens) (UniProt P12931)", "%", -3.54],
  ["CC(C)c1ccc(-c2cc(-c3c[nH]nc3-c3ccccn3)ccn2)cc1", "Proto-oncogene tyrosine-protein kinase Src (Homo sapiens) (UniProt P12931)", "%", 1.53],
  ["O=C1Nc2ccccc2/C1=C1\\CCc2cc(O)ccc21", "Proto-oncogene tyrosine-protein kinase Src (Homo sapiens) (UniProt P12931)", "%", -0.52],
  ["CN(c1ccc(NC(=O)NCCN2CCOCC2)cc1)c1ccnc(Nc2ccc(CS(C)(=O)=O)cc2)n1", "Proto-oncogene tyrosine-protein kinase Src (Homo sapiens) (UniProt P12931)", "%", 4.5]
]}

Consider N#Cc1ccc2c(-c3ccnc(NC4CC4)n3)c(-c3ccc(F)cc3)nn2c1 . Its measured inhibition is 2.91

Consider Fc1cccc(COc2ccc(Nc3ncncc3C#Cc3ccccc3)cc2Cl)c1 . Its measured inhibition is 4.7

====

Each entry below carries its recorded inhibition.
Molecular target: Casein kinase I isoform gamma-2 (Homo sapiens);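 note: values are mean inhibition figures reported as part of the GSK PKIS dataset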
Settings: at 0.1 µM
Entry rule: numbers only, all in %.

Worked cases, answers included:
{"columns": ["structure.string", "tested.on", "unit.of.measure", "inhibition"],
 "data": [
  ["CNC(=O)c1sc(-n2cnc3cc(OC)c(OC)cc32)cc1OCc1ccccc1C(F)(F)F", "Casein kinase I isoform gamma-2 (Homo sapiens)", "%", 3.4],
  ["COc1ccc(-c2nn3ncccc3c2-c2ccnc(Nc3ccc(F)c(F)c3)n2)cc1", "Casein kinase I isoform gamma-2 (Homo sapiens)", "%", 3.31],
  ["NS(=O)(=O)c1ccc(N/N=C2\\C(=O)Nc3ccc(C(=O)NCc4ccncc4)cc32)cc1", "Casein kinase I isoform gamma-2 (Homo sapiens)", "%", 1.94],
  ["CCS(=O)(=O)c1ccc(OC)c(Nc2ncc(-c3cccc(C(C)=O)c3)o2)c1", "Casein kinase I isoform gamma-2 (Homo sapiens)", "%", 2.75]
]}

Next up:
Consider CS(=O)(=O)Nc1ccc(-c2ccc3c(NC(=O)C4CC4)n[nH]c3c2)cc1 . Its measured inhibition is 1.91

====

Molecular target: Tyrosine-protein kinase SYK (Homo sapiens);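 note: reported percentages are mean inhibition values for SYK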
Details: at 0.1 µM
reported.endpoint: inhibition (%)
Entry rule: numbers only, all in %.

Worked cases, answers included:
{"columns": ["compound", "tested.on", "unit.of.measure", "reported.measurement"],
 "data": [
  ["COc1cc(Nc2ncc(-c3ccccc3)o2)cc(OC)c1", "Tyrosine-protein kinase SYK (Homo sapiens)", "%", -2.45],
  ["O=C(O[C@H]1CN[C@H](C#Cc2cc3ncnc(Nc4ccc5c(cnn5Cc5ccccc5)c4)c3s2)C1)N1CCOCC1", "Tyrosine-protein kinase SYK (Homo sapiens)", "%", 0.27],
  ["COc1ccccc1-c1cc(/C=C2\\C(=O)Nc3ncc(Br)cc32)cc(Br)c1O", "Tyrosine-protein kinase SYK (Homo sapiens)", "%", -6.56],
  ["CC1(C)CC(n2cnc(-c3ccc(F)cc3)c2-c2ccnc(N)n2)CC(C)(C)N1", "Tyrosine-protein kinase SYK (Homo sapiens)", "%", -1.03],
  ["COc1cc(N2CCN(C(C)C)CC2)ccc1Nc1nc(Nc2cccc(F)c2C(=O)O)c2cc[nH]c2n1", "Tyrosine-protein kinase SYK (Homo sapiens)", "%", -4.66]
]}

Consider NC(=O)c1ccc2c(-c3ccnc(NCCCO)n3)c(-c3ccc(F)cc3)nn2c1 . Its measured inhibition is -5.36

Consider Cn1c(-c2nonc2N)nc2cnccc21 . Its measured inhibition is -1.4

Consider OCCCNc1nccc(-c2c(-c3ccc(F)cc3)nn3cc(C(F)(F)F)ccc23)n1 . Its measured inhibition is 5.03

Consider NS(=O)(=O)c1ccc(N/N=C2\C(=O)Nc3cccc(CCc4ccncc4)c32)cc1 . Its measured inhibition is 0.03

Consider CNC(=O)c1ncccc1Nc1nc(Nc2cc3c(cc2OC)CCCN3C(=O)CN(C)C)nc2[nH]ccc12 . Its measured inhibition is -1.3

Consider COc1ccc2ncn(-c3cc(O[C@H](C)c4ccccc4C(F)(F)F)c(C(N)=O)s3)c2c1 . Its measured inhibition is -1.01

Consider COc1cc(N2CCN(C(C)C)CC2)ccc1Nc1nc(Nc2cccc3ncccc23)c2cc[nH]c2n1 . Its measured inhibition is -1.08

Consider CCOc1ccc2c(-c3ccnc(Nc4cc(OC)cc(C(F)(F)F)c4)n3)cnn2n1 . Its measured inhibition is -3.45

Consider CS(=O)(=O)CCNCc1ccc(-c2ccc3ncnc(Nc4ccc(OCc5ccccc5)cc4)c3c2)o1 . Its measured inhibition is 1.7

====

Target: Tyrosine-protein kinase ABL2 (Homo sapiens) (UniProt P42684);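 note: values are mean percent inhibition of ARG (ABL2), measured within the GSK PKIS set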
Sequence (P42684 whole entry): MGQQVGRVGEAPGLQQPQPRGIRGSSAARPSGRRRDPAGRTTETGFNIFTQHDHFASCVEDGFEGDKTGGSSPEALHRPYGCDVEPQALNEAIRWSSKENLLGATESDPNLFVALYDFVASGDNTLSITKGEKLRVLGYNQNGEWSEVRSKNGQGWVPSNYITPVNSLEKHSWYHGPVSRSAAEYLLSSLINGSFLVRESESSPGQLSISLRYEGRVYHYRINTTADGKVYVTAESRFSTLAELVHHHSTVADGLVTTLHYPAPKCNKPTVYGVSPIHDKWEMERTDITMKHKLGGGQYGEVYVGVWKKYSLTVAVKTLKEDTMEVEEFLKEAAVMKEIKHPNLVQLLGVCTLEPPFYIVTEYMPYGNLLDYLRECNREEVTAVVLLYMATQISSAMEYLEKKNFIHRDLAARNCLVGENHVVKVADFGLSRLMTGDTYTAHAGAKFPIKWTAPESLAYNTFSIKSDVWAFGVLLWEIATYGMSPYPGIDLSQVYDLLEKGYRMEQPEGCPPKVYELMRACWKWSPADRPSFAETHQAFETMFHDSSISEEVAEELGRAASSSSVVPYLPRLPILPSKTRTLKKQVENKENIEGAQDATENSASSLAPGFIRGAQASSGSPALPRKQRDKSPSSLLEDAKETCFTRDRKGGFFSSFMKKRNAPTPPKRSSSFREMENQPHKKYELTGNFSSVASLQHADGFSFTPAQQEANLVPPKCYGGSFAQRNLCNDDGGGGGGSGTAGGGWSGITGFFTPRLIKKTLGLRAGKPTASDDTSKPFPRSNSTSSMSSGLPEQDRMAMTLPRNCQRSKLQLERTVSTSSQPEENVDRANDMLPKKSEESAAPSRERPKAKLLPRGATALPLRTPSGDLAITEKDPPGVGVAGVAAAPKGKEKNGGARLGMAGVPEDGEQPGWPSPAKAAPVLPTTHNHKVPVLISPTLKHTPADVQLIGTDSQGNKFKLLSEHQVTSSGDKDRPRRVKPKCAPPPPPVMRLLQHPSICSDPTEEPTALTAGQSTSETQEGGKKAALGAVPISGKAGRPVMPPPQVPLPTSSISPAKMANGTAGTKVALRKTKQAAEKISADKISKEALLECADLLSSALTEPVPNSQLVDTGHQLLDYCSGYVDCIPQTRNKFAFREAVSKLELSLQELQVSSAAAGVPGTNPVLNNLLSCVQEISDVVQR
Settings: at 0.1 µM
Each entry below carries its recorded inhibition.
Entry rule: numbers only, all in %.

Worked cases, answers included:
{"columns": ["compound", "unit.of.measure", "reported.measurement"],
 "data": [
  ["CC1(C)CC(n2cnc(-c3ccc(F)cc3)c2-c2ccnc(N)n2)CC(C)(C)N1", "%", -1.89],
  ["COc1ccc(Nc2ncc(-c3ccccc3)o2)cc1OC", "%", 9.21],
  ["CN(c1ccc(NC(=O)NCCN2CCOCC2)cc1)c1ccnc(Nc2ccc(CS(C)(=O)=O)cc2)n1", "%", 6.09]
]}

Tyrosine-protein kinase ABL2 (Homo sapiens) (UniProt P42684) inhibition of COc1c(C(N)=O)cc(-c2ccc(Cl)cc2)cc1-c1ccc(S(N)(=O)=O)cc1 is 2.13

Tyrosine-protein kinase ABL2 (Homo sapiens) (UniProt P42684) inhibition of Cc1ccc(-c2cc3c(NC(=O)C4CC4)ncnc3o2)cc1 is 3.64

Tyrosine-protein kinase ABL2 (Homo sapiens) (UniProt P42684) inhibition of CS(=O)(=O)CCNCc1ccc(-c2ccc3ncnc(Nc4ccc(OCc5cccc(C(F)(F)F)c5)cc4)c3c2)o1 is 4.21

Tyrosine-protein kinase ABL2 (Homo sapiens) (UniProt P42684) inhibition of COc1cc(Nc2ncc(-c3ccccc3)o2)cc(OC)c1 is 5.68

Tyrosine-protein kinase ABL2 (Homo sapiens) (UniProt P42684) inhibition of c1ccc(-c2n[nH]cc2-c2ccnc(-c3ccc(OCCn4ccnc4)cc3)c2)nc1 is 5.73

Tyrosine-protein kinase ABL2 (Homo sapiens) (UniProt P42684) inhibition of COc1cccc(-n2ncc3c(N/N=C/c4ccc(C(=O)NCCN(C)C)cc4)ncnc32)c1 is 73.3

Tyrosine-protein kinase ABL2 (Homo sapiens) (UniProt P42684) inhibition of COc1ccc(-c2nn3ncccc3c2-c2ccnc(Nc3ccc(F)c(F)c3)n2)cc1 is 2.7

Tyrosine-protein kinase ABL2 (Homo sapiens) (UniProt P42684) inhibition of NC(=O)c1ccc2c(-c3ccnc(NCCCO)n3)c(-c3ccc(F)cc3)nn2c1 is 4.85

Tyrosine-protein kinase ABL2 (Homo sapiens) (UniProt P42684) inhibition of COc1cc(N2CCN(C(C)C)CC2)ccc1Nc1nc(Nc2cccc3ncccc23)c2cc[nH]c2n1 is 4.93
